- method.description: Cytotoxicity Determination, trypan blue exclusion method
- Assay type: cell-based
- reported.conditions: human, NCTC 2544 cells, read-out: 50% cell culture inhibitory concentration
- Experimental: Cells of human epithelial cell line NCTC 2544 (EP) were serially passaged from 75 cm^2 tissue culture flasks (Corning) at a spilt ratio of 1/20 every 7 days. […] Cytotoxicity was determined by means of the trypan blue exclusion method. […] Stained and unstained cells were counted in a haemocytometer. […]
readout: CC50 at 72 h
Answer with the number, then the unit.

Query string: Entry Cc1cn([C@H]2C[C@H](F)[C@@H](CO)O2)c(=O)[nH]c1=O has what CC50 at 72 h?
Result string: 38 µM

====

- System: adenovirus of serotype 8
- method.description: anti-adenoviral activity, plaque assay in human epithelial cell line NCTC 2544 (EP)
- Type: cell-based, adenovirus type 8
- reported.conditions: unidentified adenovirus, NCTC-2544; adenovirus serotype 8, EP cells, plaque assay
readout: pIC50
Kindly note that pIC50 refers to -log10 of the concentration in mol/L and answer with the value alone.

Query string: Entry Cc1cn([C@H]2C[C@H](F)[C@@H](CO)O2)c(=O)[nH]c1=O [Compound No. 1, 2',3'-dideoxy-3'-fluorothymidine] has what pIC50?
Result string: 8.30
